Would you kindly list inhibition at 20 µg/mL (stock) for each of these compounds?
# Test system: HUVEC (human umbilical vein endothelial cells), VEGF-induced proliferation
# experimental_protocol: Cell proliferation inhibitory action test using a VEGF-induced HUVEC proliferation reaction evaluation system
# Assay type: cell-based
# cond: Homo sapiens, 72 h, 20 μg/mL test compound solution, 5 μL per well, WST-8 three days after VEGF addition, absorbance at 450 nm, control 1.0% DMSO, read-out: Cell proliferation inhibition rate (%)
Output spec: scalar in %, unitless text.

Consider Nc1nccc(CSc2ncccc2C(=O)Nc2cc3ccccc3cn2)n1 [Compound 1-12] . Its measured inhibition at 20 µg/mL (stock) is 84

Consider Cc1cc(C)cc(NC(=O)c2cccnc2SCc2ccncn2)c1 [Compound 1-22] . Its measured inhibition at 20 µg/mL (stock) is 100

Consider O=C(Nc1cccc(C(F)(F)F)c1)c1cccnc1SCc1ccnc(NC2CC2)n1 [Compound 4-9] . Its measured inhibition at 20 µg/mL (stock) is 100

Consider Cc1cc(C)cc(NC(=O)c2cccnc2SCc2ccnc(NC3CC3)n2)c1 [Compound 4-1] . Its measured inhibition at 20 µg/mL (stock) is 100

Consider O=C(Nc1ccc(OC(F)(F)F)cc1)c1cccnc1SCc1ccnc(NC2CC2)n1 [Compound 4-6] . Its measured inhibition at 20 µg/mL (stock) is 100

Consider CC(=O)Nc1nccc(CSc2ncccc2C(=O)Nc2cc(C)cc(C)c2)n1 [Compound 2-1] . Its measured inhibition at 20 µg/mL (stock) is 100

Consider CC(=O)N(C(C)=O)c1nccc(CSc2ncccc2C(=O)Nc2cc(C)cc(C)c2)n1 [Compound 3-1] . Its measured inhibition at 20 µg/mL (stock) is 100

Consider CC(=O)Nc1nccc(CSc2ncccc2C(=O)Nc2ccc3c(c2)CCC3)n1 [Compound 2-4] . Its measured inhibition at 20 µg/mL (stock) is 99

Consider Cc1cc(C)cc(NC(=O)c2cccnc2SCc2ccnc(N3CCOCC3)n2)c1 [Compound 4-4] . Its measured inhibition at 20 µg/mL (stock) is 100

Consider CCOCCNc1nccc(CSc2ncccc2C(=O)Nc2ccc(OC(F)(F)F)cc2)n1 [Compound 4-22] . Its measured inhibition at 20 µg/mL (stock) is 100

Consider Cc1cc(C)cc(NC(=O)c2cccnc2SCc2ccnc(NCCO)n2)c1 [Compound 4-19] . Its measured inhibition at 20 µg/mL (stock) is 100

Consider Cc1cc(C)cc(NC(=O)c2cccnc2SCc2ccnc(N)n2)c1 [Compound 1-1] . Its measured inhibition at 20 µg/mL (stock) is 96

Consider CSc1nccc(CSc2ncccc2C(=O)Nc2cc(C)cc(C)c2)n1 [Compound 1-26] . Its measured inhibition at 20 µg/mL (stock) is 100

Consider CC(C)c1cccc(NC(=O)c2cccnc2SCc2ccnc(N)n2)c1 [Compound 1-7] . Its measured inhibition at 20 µg/mL (stock) is 96

Consider CC(=O)Nc1nccc(CSc2ncccc2C(=O)Nc2ccc(Cl)cc2)n1 [Compound 2-2] . Its measured inhibition at 20 µg/mL (stock) is 97

Consider CNc1nccc(CSc2ncccc2C(=O)Nc2cc(C)cc(C)c2)n1 [Compound 1-33] . Its measured inhibition at 20 µg/mL (stock) is 100

Consider Cc1cc(C)cc(NC(=O)c2ccccc2SCc2ccnc(N)n2)c1 [Compound 1-16] . Its measured inhibition at 20 µg/mL (stock) is 100

Consider Cc1cc(C)cc(NC(=O)c2cccnc2SCc2ccnc(N3CCN(CCO)CC3)n2)c1 [Compound 4-25] . Its measured inhibition at 20 µg/mL (stock) is 100
